Documented pIC50 across a set of compounds
- Test system: MYB mRNA
- protocolNotes: RT-qPCR splicing assay, MYB canonical junction (CJ) and alternative junction (AJ) mRNA
- Assay type: cell-based, human
- runParameters: Homo sapiens; decrease in MYB canonical junction (CJ) mRNA, RT-qPCR; read-out: MYB CJ IC50
pIC50: −log10 of the molar value.

Sample records with pIC50:
INSERT INTO assay_data (compound, endpointresult) VALUES
  ('CC[C@@H]1C[C@H](n2ncc3cc(-c4cc(C)c5nc(C)cn5n4)ccc3c2=O)CCN1 [Compound 304]', '6.00 to 7.00'),
  ('Cc1cc(-c2ccc3c(=O)n([C@@H]4CCNC[C@H]4F)ncc3c2)cc2cn(C)nc12 [Compound 378]', '5.00 to 6.00'),
  ('Cc1cn2cc(-c3ncc4c(=O)n([C@@H]5CCNC5)ccc4n3)cc(F)c2n1 [Compound 1228]', '5.00 to 6.00'),
  ('CNC(=O)Cc1cc(-c2ccc3c(=O)n(C4CCNCC4)ccc3c2)nn2cc(C)nc12 [Compound 534]', '5.00 to 6.00');

Shift focus to the following entry.
Reported pIC50 for MYB mRNA, given Cc1c(O)c(-c2ccc3c(=O)n([C@H]4CCNC5(CC5)C4)ccc3n2)cc2cn(C)nc12 [Compound 1508] ?
> 7.00

====

- System: HTT mRNA
- protocolNotes: RT-qPCR splicing assay, HTT canonical junction (CJ) and alternative junction (AJ) mRNA
- Assay type: cell-based, human
- runParameters: Homo sapiens; Table 5 panel; canonical junction qPCR; compound concentration having 50% response in CJ decrease; read-out: HTT IC50 (decrease in CJ mRNA levels)
Counter-ions that a name gives are not always drawn.
measureName: IC50

INSERT INTO results (compound, endpointresult) VALUES
  ('Cc1cc(-c2cc(F)c3c(=O)n(C4CCNC5(CC5)C4)ccc3c2)nc2cn(C)nc12 (stereo not drawn)', '< 100 nM'),
  ('COc1cc(-c2ccc3c(=O)n(C4CCNCC4)ccc3c2)nn2cc(C)nc12 [Compound 514, hydrochloride]', '< 100 nM');

Bench note: what IC50 did CCOC(=O)c1cc(-c2ccc3c(=O)n(C4CCNCC4)ccc3c2)nn2cc(C)nc12 show?
100 to 1000 nM

====

- Test system: HTT
- protocolNotes: HiBiT protein abundance assay, HTT HiBiT K562 cell line
- Assay type: cell-based, human
- runParameters: HiBiT K562 cell line, 24 hours, top dose 10 μM; read-out: Effect on protein abundance, HTT (IC50 category)
Documented IC50 across a set of compounds

Bench note: what IC50 did Cc1nc2c(C)cc(-c3ccc4c(=O)n(C5CCNC6(CC6)C5)ncc4c3)cc2o1 (stereo not shown) show?
100 to 1000 nM

Entry Cc1cc(-c2ccc3c(=O)n(C4CCNCC4)c(C)nc3c2)cc2cn(C)nc12 please
> 10000 nM

Entry Cc1cn2nc(-c3cc(N(C)C)c4c(=O)n(C5CCNC6(CC6)C5)cnc4c3)cc(C)c2n1 (stereo not shown) please
> 10000 nM

Entry Cc1cn2cc(-n3cnc4cc(N5CCN(C)CC5)ccc4c3=O)cc(F)c2n1 please
> 10000 nM

====

Documented AC50 across a set of compounds
- Tested on: MYB mRNA
- protocolNotes: RT-qPCR splicing assay, MYB canonical junction (CJ) and alternative junction (AJ) mRNA
- Format: cell-based, human
- runParameters: Homo sapiens; increase in MYB alternative junction (AJ) mRNA, RT-qPCR; read-out: MYB AJ AC50

INSERT INTO assay_data (structureassmiles, endpointresult) VALUES
  ('Cc1c(O)c(-c2ncc3c(=O)n([C@@H]4CCN[C@H](C)C4)ccc3n2)cc2cn(C)nc12', '100 to 1000 nM');

Bench note: what AC50 did Cn1cc2ccc(-n3cnc4cc(NC5CCNCC5)ccc4c3=O)cc2n1 show?
> 10000 nM

Entry Cc1cn2nc(-c3ccc4c(=O)n(C5CCNCC5)ccc4c3)cc(CCO)c2n1 please
100 to 1000 nM

====

Documented pIC50 across a set of compounds
- Test system: SMN2 mRNA
- protocolNotes: RT-qPCR splicing assay, SMN2 canonical junction (CJ) mRNA
- Assay type: cell-based, human
- runParameters: Homo sapiens; canonical junction qPCR panel, Table 5; read-out: SMN2 (decrease in CJ mRNA levels, IC50)
pIC50: −log10 of the molar value.

Bench note: what pIC50 did Cc1cc(-c2ccc3ncn(C4CCN(C)CC4)c(=O)c3c2)cc2cn(C)nc12 [Compound 2170] show?
< 5.00

====

- Tested on: MYB mRNA
- protocolNotes: RT-qPCR splicing assay, MYB canonical junction (CJ) and alternative junction (AJ) mRNA
- Assay type: cell-based, human
- runParameters: Homo sapiens; increase in MYB alternative junction (AJ) mRNA, RT-qPCR; read-out: MYB AJ AC50
Documented AC50 across a set of molecules

Sample records with AC50:
INSERT INTO assay_data (structureassmiles, endpointresult) VALUES
  ('Cc1cn2nc(-c3ccc4c(=O)n([C@@H]5C[C@H]6CC[C@@H](C5)N6)ncc4c3)cc(C)c2n1', '100 to 1000 nM'),
  ('Cc1cn2nc(-c3cc4ccn([C@H]5CCNC5)c(=O)c4cc3O)cc(C)c2n1', '< 100 nM');

Shift focus to the following entry.
Bench note: what AC50 did Cn1cc2ccc(-n3cnc4ccc(NC5CCNCC5)cc4c3=O)cc2n1 show?
> 10000 nM

====

- System: HTT mRNA
- protocolNotes: RT-qPCR splicing assay, HTT canonical junction (CJ) and alternative junction (AJ) mRNA
- Format: cell-based, human
- runParameters: Homo sapiens, increase in HTT alternative junction (AJ) mRNA, RT-qPCR; read-out: HTT AJ AC50
Documented AC50 across a set of compounds

Sample records with AC50:
INSERT INTO measurements (compound, endpointresult) VALUES
  ('Cc1cn2nc(-c3ccc4c(=O)n(C5CCNCC5)cnc4c3)cc(C)c2n1 [Compound 181]', '0.1 to 1 µM'),
  ('Cc1nc2c(F)cc(-c3ccc4c(=O)n(C5CCNCC5)cnc4c3)cc2s1 [Compound 285]', '1 to 10 µM'),
  ('Cc1cc(-c2nc3cc(N4CCNCC4)ccc3c(=O)[nH]2)cc2cn(C)nc12 [Compound 2213]', '> 10 µM'),
  ('Cc1c(O)c(-c2ncc3c(=O)n([C@H]4CCN[C@H](C)C4)ccc3n2)cc2cn(C)nc12 [Compound 1461]', '0.1 to 1 µM'),
  ('Cc1cn2cc(-c3ncc4c(=O)n([C@H]5CCN[C@H](C)C5)ccc4n3)cc(F)c2n1 [Compound 1490]', '< 0.1 µM'),
  ('Cn1cc2cc(-c3cc4ccn(C5CCNCC5)c(=O)c4cn3)c(O)c(F)c2n1 [Compound 1199]', '1 to 10 µM');

Shift focus to the following entry.
Bench note: what AC50 did Cc1cn2nc(-c3ccc4c(c3)CCN(C3CCNCC3)C4=O)cc(C)c2n1 [Compound 185] show?
0.1 to 1 µM

====

Documented GI50 across a set of compounds
- System: K562 (human chronic myelogenous leukemia) cells
- protocolNotes: Cell Titer Glo 2.0 cell viability assay
- Assay type: cell-based
- runParameters: Homo sapiens, K562, 72 h, K562 cells, 72 hours, Cell Titer Glo 2.0; read-out: K562 GI50

INSERT INTO measurements (compound, measurename, endpointresult) VALUES
  ('Cc1c(O)c(-c2ncc3c(=O)n(C4CNC4)ccc3n2)cc2cn(C)nc12', 'GI50', '1 to 10 µM'),
  ('Cc1cn2nc(-c3cc(F)c4c(=O)n([C@H]5CCN(C)C6(CC6)C5)ncc4c3)cc(C)c2n1', 'GI50', '0.1 to 1 µM'),
  ('Cn1cc2cc(-c3cc(F)c4c(=O)n(C5CCNC6(CC6)C5)ccc4c3)c(O)cc2n1 (stereo not drawn)', 'GI50', '> 10 µM');

Bench note: what GI50 did O=c1c2ccc(-c3cn[nH]c3)cc2cnn1C1CCNCC1 show?
> 10 µM

Entry CCN1CCC(n2ncc3nc(-c4cc5cn(C)nc5cc4O)ccc3c2=O)CC1 please
0.1 to 1 µM

Entry C=Cc1cn(C2CCNCC2)c(=O)c2c(F)cc(-c3cc(F)c4nc(C)cn4c3)cc12 please
< 0.1 µM

Entry Cc1cn2nc(-c3cc(F)c4c(=O)n([C@H]5CCNC6(CC6)C5)cnc4c3)cc(C)c2n1 (single isomer, unassigned) please
< 0.1 µM

====

Documented pIC50 across a set of molecules
- Test system: MYB mRNA
- protocolNotes: RT-qPCR splicing assay, MYB canonical junction (CJ) and alternative junction (AJ) mRNA
- Type: cell-based, human
- runParameters: Homo sapiens; canonical junction qPCR panel, Table 5; read-out: MYB (decrease in CJ mRNA levels, IC50)
pIC50: −log10 of the molar value.

Sample records with pIC50:
INSERT INTO results (molecule, endpointresult) VALUES
  ('Cc1c(O)c(-c2ncc3c(=O)n(C4CCNC(C)(C)C4)ccc3n2)cc2cn(C)nc12 (stereo not drawn)', '6.00 to 7.00'),
  ('Cc1c(O)c(-c2ncc3c(=O)n(C4C[C@@H](C)N[C@H](C)C4)ccc3n2)cc2cn(C)nc12 (stereo partly drawn)', '6.00 to 7.00'),
  ('Cc1c(O)c(-c2ncc3c(=O)n([C@@H]4C[C@@H](C)N[C@@H](C)C4)ccc3n2)cc2cn(C)nc12', '6.00 to 7.00'),
  ('Cc1cc(-c2nc3cc(N4CCNCC4)ccc3c(=O)[nH]2)cc2cn(C)nc12', '< 5.00'),
  ('Cc1c(O)c(-c2ncc3c(=O)n([C@@H]4CCNC5(CC5)C4)ccc3n2)cc2cn(C)nc12', '6.00 to 7.00');

Bench note: what pIC50 did Cc1cn2nc(-c3ccc4c(=O)n([C@H]5CCNC6(CCC6)C5)ccc4n3)cc(C)c2n1 show?
6.00 to 7.00

Every entry's value here was drawn from patent US20250332173A1.
